Every entry's value here was drawn from patent US9938261B2.

Overview of reported Kd across a group of molecules:
tgt: FLT3 (Homo sapiens, UniProt P36888)
Construct: made in house
Sequence (P36888 27-993): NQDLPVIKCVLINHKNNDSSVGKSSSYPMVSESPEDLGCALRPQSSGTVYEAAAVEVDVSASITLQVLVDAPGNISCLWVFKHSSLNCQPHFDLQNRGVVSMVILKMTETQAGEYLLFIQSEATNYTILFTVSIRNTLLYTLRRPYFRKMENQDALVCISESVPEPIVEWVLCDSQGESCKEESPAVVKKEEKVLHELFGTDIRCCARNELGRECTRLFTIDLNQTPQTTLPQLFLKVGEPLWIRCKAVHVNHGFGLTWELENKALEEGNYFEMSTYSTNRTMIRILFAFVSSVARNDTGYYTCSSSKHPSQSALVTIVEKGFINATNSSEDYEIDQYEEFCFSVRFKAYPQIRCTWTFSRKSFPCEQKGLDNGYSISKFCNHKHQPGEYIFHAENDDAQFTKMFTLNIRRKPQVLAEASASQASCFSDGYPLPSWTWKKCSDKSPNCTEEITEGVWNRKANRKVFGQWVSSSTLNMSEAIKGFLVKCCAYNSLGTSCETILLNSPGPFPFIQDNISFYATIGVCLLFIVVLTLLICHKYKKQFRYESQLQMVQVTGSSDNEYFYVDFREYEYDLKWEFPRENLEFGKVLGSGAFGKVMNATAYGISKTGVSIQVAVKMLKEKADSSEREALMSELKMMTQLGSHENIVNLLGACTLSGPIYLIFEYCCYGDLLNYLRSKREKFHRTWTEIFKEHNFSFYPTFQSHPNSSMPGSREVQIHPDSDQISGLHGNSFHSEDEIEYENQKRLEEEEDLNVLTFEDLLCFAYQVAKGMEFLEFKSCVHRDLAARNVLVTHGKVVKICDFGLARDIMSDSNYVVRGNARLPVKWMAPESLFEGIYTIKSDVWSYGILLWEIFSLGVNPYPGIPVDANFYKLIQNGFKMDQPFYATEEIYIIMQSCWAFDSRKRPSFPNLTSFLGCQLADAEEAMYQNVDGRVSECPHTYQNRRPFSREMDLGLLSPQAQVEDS
experiment.description: Competition binding assay, FLT3 Kd

>>> endpoint_value("CNC(=O)c1cn(Cc2ccc3nc(N[C@@H]4CCCC[C@H]4O)sc3c2)cn1 [Example 37]")
"> 5000 nM"
>>> endpoint_value("O[C@@H]1CCCC[C@H]1Nc1nc2ccc(Cn3cnc4cncnc43)cc2s1 [Example 48]")
"> 5000 nM"
>>> endpoint_value("Cn1cc(-c2cnc3c(c2)ncn3Cc2ccc3nc(N[C@@H]4CCCC[C@H]4O)sc3c2)cn1 [Example 39]")
"≤ 200 nM"
>>> endpoint_value("COc1cc2ncn(Cc3ccc4nc(N[C@@H]5CCCC[C@H]5O)sc4c3)c2cc1Br [Example 47]")
"200 to 1000 nM"
>>> endpoint_value("O[C@@H]1CCCC[C@H]1Nc1nc2ccc(Cn3cnc4ncccc43)cc2s1 [Example 5]")
"> 5000 nM"

Read the entry O=C1CCCC[C@H]1Nc1nc2ccc(Cn3cnc4cccnc43)cc2s1 [Example 54] and write its reported Kd.
> 5000 nM

Given COc1cc2ncn(Cc3ccc4nc(NCc5ccncc5)sc4c3)c2cc1OC [Example 21] , respond with its Kd.
> 5000 nM

Fill in Kd for record O[C@@H]1Cc2ccccc2[C@H]1Nc1nc2ccc(Cn3cnc4cccnc43)cc2s1 [Example 46]
1000 to 5000 nM

Give Kd for COc1cc2ncn(Cc3ccc4nc(N[C@@H](C)C5CCCCC5)sc4c3)c2cc1OC [Example 33]
200 to 1000 nM

In one line, give reported Kd of the entry COc1cc2ncn(Cc3ccc4nc(N[C@@H]5CCCCC[C@H]5O)sc4c3)c2cc1OC (racemic) [Example 50] .
≤ 200 nM

Using known records, supply Kd for COc1cc2ncn(Cc3ccc4nc(N[C@H]5CCc6ccccc65)sc4c3)c2cc1OC [Example 11]
200 to 1000 nM

Indicate the recorded Kd value for this molecule: NCc1cnc2c(c1)ncn2Cc1ccc2nc(N[C@@H]3CCCC[C@H]3O)sc2c1 [Example 91]
≤ 200 nM
